Biological target: UniProt O00487
Sequence (O00487 whole entry, the tested form may be a part): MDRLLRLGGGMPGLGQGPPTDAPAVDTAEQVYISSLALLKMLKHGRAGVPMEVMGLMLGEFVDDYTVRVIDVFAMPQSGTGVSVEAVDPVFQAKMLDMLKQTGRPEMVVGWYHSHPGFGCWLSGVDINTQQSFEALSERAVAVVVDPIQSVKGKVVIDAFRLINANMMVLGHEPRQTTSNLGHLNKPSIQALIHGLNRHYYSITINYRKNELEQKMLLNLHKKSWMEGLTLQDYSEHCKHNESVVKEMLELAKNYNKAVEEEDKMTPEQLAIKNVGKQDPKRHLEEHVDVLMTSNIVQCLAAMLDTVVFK
Assay: log2 ratio of Biotin-Ahx-Ub-VS probe labelling (fragment/DMSO); higher = less target engagement (more negative = stronger competition), active = hit call of the paper (q ≤ 0.05, log2 ratio ≤ -1)
Conditions: compound concentration: 200 uM; treatment time: 3 h
property_label: log2 ratio of Biotin-Ahx-Ub-VS probe labelling
Just the number, please.

Please review the following examples before continuing.
| molecule | reported |
| --- | --- |
| CCN(C(=O)CCl)C1CCS(=O)(=O)C1 (centres undefined) | 0.0162 |
| O=C(CCl)N1CCC(=C(F)CO)C1 | 0.129 |
| Cn1cc(CN(Cc2ccc(Cl)cc2)C(=O)CCl)cn1 | 0.0261 |
| O=C(CCl)NC1CCOc2ccccc21 (centres undefined) | 0.0141 |
| CN(C)C(=O)c1ccc(CNC(=O)CCl)cc1 | -0.101 |

## Task API: value(readout=log2 ratio of Biotin-Ahx-Ub-VS probe labelling, system=UniProt O00487) for record O=C(CCl)N1CCOCC1C1CC1 (centres undefined)
## Result -0.226

## Task Reported log2 ratio of Biotin-Ahx-Ub-VS probe labelling for UniProt O00487, given CN(C)S(=O)(=O)c1ccccc1CNC(=O)CCl ?
## Result 0.0834

## Task What is its log2 ratio of Biotin-Ahx-Ub-VS probe labelling for UniProt O00487? Entry: O=C(CCl)N[C@H]1CCS(=O)(=O)c2ccccc21
## Result -0.0201

## Task Give the reported log2 ratio of Biotin-Ahx-Ub-VS probe labelling for COc1ccc(CN(C)C(=O)CCl)cc1 (system: UniProt O00487).
## Result -0.0169

## Task Please state recorded log2 ratio of Biotin-Ahx-Ub-VS probe labelling (tested on UniProt O00487) of CC(=O)Nc1ccc(NC(=O)CCl)cc1
## Result -0.167

## Task Entry Cl.O=C(CCl)N[C@H]1C[C@@H](n2cccn2)C1 , system UniProt O00487: what log2 ratio of Biotin-Ahx-Ub-VS probe labelling was measured?
## Result 0.0109

## Task Lab note: need log2 ratio of Biotin-Ahx-Ub-VS probe labelling with UniProt O00487 for entry Cc1cccc(N(CCC#N)C(=O)CCl)c1C , please look it up.
## Result 0.0621

## Task Kindly state the measured log2 ratio of Biotin-Ahx-Ub-VS probe labelling obtained for CC(NC(=O)CCl)c1ccc2[nH]ncc2c1 (centres undefined) with UniProt O00487.
## Result -0.121

## Task Give UniProt O00487 log2 ratio of Biotin-Ahx-Ub-VS probe labelling for Cc1c(NC(=O)CCl)c(=O)n(-c2ccccc2)n1C
## Result -0.111

###

Target: VCPIP1 (UniProt Q96JH7)
Sequence (Q96JH7 whole entry, the tested form may be a part): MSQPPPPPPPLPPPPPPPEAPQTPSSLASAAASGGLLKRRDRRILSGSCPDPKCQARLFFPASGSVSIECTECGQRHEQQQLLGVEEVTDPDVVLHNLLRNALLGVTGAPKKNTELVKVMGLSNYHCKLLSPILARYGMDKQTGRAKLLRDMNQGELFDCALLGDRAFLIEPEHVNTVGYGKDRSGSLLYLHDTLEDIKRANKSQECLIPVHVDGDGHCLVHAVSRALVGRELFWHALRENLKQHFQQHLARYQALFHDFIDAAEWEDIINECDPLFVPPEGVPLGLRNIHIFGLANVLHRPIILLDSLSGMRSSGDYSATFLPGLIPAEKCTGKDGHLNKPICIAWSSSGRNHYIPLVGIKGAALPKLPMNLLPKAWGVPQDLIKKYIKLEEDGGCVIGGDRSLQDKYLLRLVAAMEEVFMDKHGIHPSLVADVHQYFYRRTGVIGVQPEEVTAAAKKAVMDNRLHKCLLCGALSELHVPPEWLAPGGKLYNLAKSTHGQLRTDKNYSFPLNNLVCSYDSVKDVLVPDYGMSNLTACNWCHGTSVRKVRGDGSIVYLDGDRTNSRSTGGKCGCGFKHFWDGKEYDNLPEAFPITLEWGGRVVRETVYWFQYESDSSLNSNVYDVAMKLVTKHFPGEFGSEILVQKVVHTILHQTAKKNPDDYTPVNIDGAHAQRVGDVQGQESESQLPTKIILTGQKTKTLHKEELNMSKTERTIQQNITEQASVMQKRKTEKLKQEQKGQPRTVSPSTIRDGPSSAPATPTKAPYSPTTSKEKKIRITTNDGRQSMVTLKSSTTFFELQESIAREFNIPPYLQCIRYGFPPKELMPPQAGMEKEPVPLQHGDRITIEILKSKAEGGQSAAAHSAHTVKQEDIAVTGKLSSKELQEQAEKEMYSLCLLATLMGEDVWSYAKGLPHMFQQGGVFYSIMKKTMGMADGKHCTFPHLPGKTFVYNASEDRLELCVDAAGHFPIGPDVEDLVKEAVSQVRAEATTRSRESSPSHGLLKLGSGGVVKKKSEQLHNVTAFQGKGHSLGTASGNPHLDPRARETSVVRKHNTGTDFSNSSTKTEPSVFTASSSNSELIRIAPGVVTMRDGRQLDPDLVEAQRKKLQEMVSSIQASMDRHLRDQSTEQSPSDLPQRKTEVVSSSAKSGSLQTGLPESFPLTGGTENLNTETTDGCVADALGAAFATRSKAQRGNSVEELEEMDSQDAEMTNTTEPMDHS
Test: log2 ratio of Biotin-Ahx-Ub-VS probe labelling (fragment/DMSO); higher = less target engagement (more negative = stronger competition), active = hit call of the paper (q ≤ 0.05, log2 ratio ≤ -1)
Conditions: compound concentration: 200 uM; treatment time: 3 h
Label 1 (yes) when log2 ratio of Biotin-Ahx-Ub-VS probe labelling >= -2; otherwise 0 (no).

Solved entries:
| compound | target_or_system | label_class |
| --- | --- | --- |
| CC(NC(=O)CCl)c1cccc(Cl)c1 (centres undefined) | VCPIP1 (UniProt Q96JH7) | 1 (yes) |
| O=C(CCl)N1CC2(CCOCC2)C1 | VCPIP1 (UniProt Q96JH7) | 1 (yes) |

## Task Is the recorded value of log2 ratio of Biotin-Ahx-Ub-VS probe labelling equal to or greater than -2 for this compound? CNC(=O)C1CCN(C(=O)CCl)CC1
## Result 1 (yes)

## Task Check if log2 ratio of Biotin-Ahx-Ub-VS probe labelling >= -2 (inclusive). Item: O=C(CCl)NCC(=O)N1CCCC1
## Result 1 (yes)

###

Molecular target: UniProt Q9UGI0
Sequence (whole entry): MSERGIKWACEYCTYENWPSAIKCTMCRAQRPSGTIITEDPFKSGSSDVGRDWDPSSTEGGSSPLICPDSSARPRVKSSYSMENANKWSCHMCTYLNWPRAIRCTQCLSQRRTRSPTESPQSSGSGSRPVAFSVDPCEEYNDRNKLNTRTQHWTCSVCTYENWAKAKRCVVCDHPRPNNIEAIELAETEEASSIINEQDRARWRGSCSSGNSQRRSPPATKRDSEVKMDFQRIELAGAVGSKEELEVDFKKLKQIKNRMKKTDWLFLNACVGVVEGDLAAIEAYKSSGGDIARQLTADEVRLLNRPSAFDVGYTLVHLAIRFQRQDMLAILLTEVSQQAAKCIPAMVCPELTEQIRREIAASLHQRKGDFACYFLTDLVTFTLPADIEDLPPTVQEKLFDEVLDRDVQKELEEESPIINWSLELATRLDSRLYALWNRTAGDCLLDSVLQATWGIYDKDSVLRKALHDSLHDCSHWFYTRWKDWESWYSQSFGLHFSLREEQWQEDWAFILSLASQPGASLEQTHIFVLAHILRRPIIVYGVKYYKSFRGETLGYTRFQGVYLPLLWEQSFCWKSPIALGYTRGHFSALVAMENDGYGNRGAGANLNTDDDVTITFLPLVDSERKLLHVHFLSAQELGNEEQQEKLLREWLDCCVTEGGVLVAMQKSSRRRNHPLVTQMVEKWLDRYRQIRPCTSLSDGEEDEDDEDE
Assay: log2 ratio of Biotin-Ahx-Ub-VS probe labelling (fragment/DMSO); higher = less target engagement (more negative = stronger competition), active = hit call of the paper (q ≤ 0.05, log2 ratio ≤ -1)
Settings: compound concentration: 200 uM; treatment time: 3 h
Item-by-item account of log2 ratio of Biotin-Ahx-Ub-VS probe labelling
Answer field: number only, no words.

Worked examples, 5 compounds total:
| compound | reported |
| --- | --- |
| COc1ccc(Cl)cc1NC(=O)CCl | -0.741 |
| O=C(CCl)NC1CCS(=O)(=O)c2ccccc21 (configuration not stated) | -0.564 |
| Cl.O=C(CCl)NCCc1ncc(F)cc1F | -0.786 |
| O=C(CCl)Nc1cccc(NC(=O)c2ccccc2)c1 | 0.0168 |
| Cc1cccnc1NC(=O)C1CCN(C(=O)CCl)CC1.Cl | -0.465 |

## Task Given the compound Cc1ccccc1C1(CNC(=O)CCl)CCOCC1 , what is its reported log2 ratio of Biotin-Ahx-Ub-VS probe labelling?
## Result -0.577

## Task Quick one: log2 ratio of Biotin-Ahx-Ub-VS probe labelling of Cc1cccc(N(CCC#N)C(=O)CCl)c1C ?
## Result -0.934

###

Biological target: OTUD5 (UniProt Q96G74)
Sequence (Q96G74 whole entry, the tested form may be a part): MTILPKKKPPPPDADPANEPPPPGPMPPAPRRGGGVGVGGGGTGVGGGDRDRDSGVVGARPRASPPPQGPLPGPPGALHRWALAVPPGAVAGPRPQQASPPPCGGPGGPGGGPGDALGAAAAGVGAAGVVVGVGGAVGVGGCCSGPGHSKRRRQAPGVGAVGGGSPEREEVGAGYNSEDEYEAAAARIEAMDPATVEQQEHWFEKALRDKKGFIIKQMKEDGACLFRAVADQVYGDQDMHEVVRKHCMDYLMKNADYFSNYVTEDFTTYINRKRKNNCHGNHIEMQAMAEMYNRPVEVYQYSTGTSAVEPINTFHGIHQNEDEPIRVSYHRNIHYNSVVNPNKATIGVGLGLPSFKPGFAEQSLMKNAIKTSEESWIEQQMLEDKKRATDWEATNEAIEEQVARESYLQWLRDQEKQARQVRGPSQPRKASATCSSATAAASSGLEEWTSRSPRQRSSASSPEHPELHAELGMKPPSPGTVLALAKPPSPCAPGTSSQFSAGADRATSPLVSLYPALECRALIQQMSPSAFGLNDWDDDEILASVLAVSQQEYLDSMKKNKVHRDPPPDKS
Assay: log2 ratio of Biotin-Ahx-Ub-VS probe labelling (fragment/DMSO); higher = less target engagement (more negative = stronger competition), active = hit call of the paper (q ≤ 0.05, log2 ratio ≤ -1)
Conditions: compound concentration: 200 uM; treatment time: 3 h
# reported log2 ratio of Biotin-Ahx-Ub-VS probe labelling; entries follow
Kindly provide the number alone.

| molecule | reported |
| --- | --- |
| Cc1ccc2nnc(CNC(=O)CCl)n2c1 | 0.0162 |
| Cc1ccccc1CN(C)C(=O)CCl | -1.15 |
| Cc1ccc(CC(NC(=O)CCl)c2ccccn2)cc1.Cl (stereo not drawn) | -0.157 |

## Task // lookup log2 ratio of Biotin-Ahx-Ub-VS probe labelling for O=C(CCl)N1CCC(C(=O)N2CCCC2)CC1
## Result -0.137

## Task Entry under review: Cl.O=C(CCl)N1CCCC(c2ncc[nH]2)C1 (stereo not drawn) . Reported log2 ratio of Biotin-Ahx-Ub-VS probe labelling?
## Result -0.22

## Task Requested field: log2 ratio of Biotin-Ahx-Ub-VS probe labelling. Item: Cc1cccc(C(CNC(=O)CCl)N2CCOCC2)c1.Cl (stereo not drawn)
## Result -0.241

## Task What does the data say about its log2 ratio of Biotin-Ahx-Ub-VS probe labelling? Entry: Cc1ccccc1C1(CNC(=O)CCl)CCOCC1
## Result -0.157

## Task // query log2 ratio of Biotin-Ahx-Ub-VS probe labelling value for entry O=C(CCl)N1CCOC2(CCC2)CC1
## Result -0.595

## Task Can you share its log2 ratio of Biotin-Ahx-Ub-VS probe labelling? I mean this molecule: Cl.Cn1ncc2c1CCCC2NC(=O)CCl (stereo not drawn)
## Result -0.0276

## Task // query log2 ratio of Biotin-Ahx-Ub-VS probe labelling value for entry Cl.O=C(CCl)N1CCN(Cc2ccccc2)CC1
## Result -0.551

## Task Dear colleague, I am looking for the recorded log2 ratio of Biotin-Ahx-Ub-VS probe labelling of the following molecule: CC(=O)C1CCCCN1C(=O)CCl (stereo not drawn)
## Result -0.219

## Task // lookup log2 ratio of Biotin-Ahx-Ub-VS probe labelling for O=C(CN1CCN(C(=O)CCl)CC1)Nc1cccc(F)c1
## Result -0.511

## Task Consider the molecule Cc1cc(C(=O)NC2CCN(C(=O)CCl)CC2)no1 and give its measured log2 ratio of Biotin-Ahx-Ub-VS probe labelling.
## Result -0.298
